target: human CXCR4 receptor (wild type) (human, UniProt P61073 1-352); test: cell-based or functional assay
Sequence (P61073 whole entry): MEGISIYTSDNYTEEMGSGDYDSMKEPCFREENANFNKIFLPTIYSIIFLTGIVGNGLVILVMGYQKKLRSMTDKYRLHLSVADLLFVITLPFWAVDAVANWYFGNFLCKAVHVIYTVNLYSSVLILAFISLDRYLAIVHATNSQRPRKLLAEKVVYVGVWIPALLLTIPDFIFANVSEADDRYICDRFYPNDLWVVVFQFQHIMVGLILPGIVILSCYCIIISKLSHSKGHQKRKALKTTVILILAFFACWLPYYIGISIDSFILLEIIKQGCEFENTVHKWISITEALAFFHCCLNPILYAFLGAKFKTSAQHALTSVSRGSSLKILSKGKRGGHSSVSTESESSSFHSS
quantityKind: IC50, [35S]GTPγS binding, NIH3T3/CXCR4 cells, SDF-1 10 nM (nM)

>>> valueobserved("anti-CXCR4 Mab 515H7 (antibody, V domains shown) VH: EVNLVESGGGLVQPGGSLRLSCATSGFTFTDNYMSWVRQPPGKALEWLGFIRNKANGYTTDYSASVRGRFTISRDNSQSILYLQMNALRAEDSATYYCARDVGSNYFDYWGQGTTLTVSS VL: DIVMSQSPSSLAVSAGEKVTMSCKSSQSLFNSRTRKNYLAWYQQKPGQSPKLLIYWASARDSGVPARFTGSGSETYFTLTISRVQAEDLAVYYCMQSFNLRTFGGGTKLEIK")
1.9
